Reported values of RP-LC retention time for individual entries
# Protocol summary: gradient 5% acetonitrile 3 min, to 50% in 2 min, to 85% in 15 min, held 3 min, 100 µL/min
# Condition details: column: Zorbax Extend-C18 2.1 x 50 mm; eluents: water / acetonitrile, 0.1% formic acid
Report the figure in s without appending any unit label.

Solved entries:
CCCOc1ccc(C(=O)N(Cc2ccc(Br)o2)C2CCS(=O)(=O)C2)cc1 (stereo not given)
1010
O=C(NCc1ccc(N2CCOCC2)cc1)C1CCCN(c2nccnc2Sc2ccccc2)C1 (stereo not given)
933
O=C(Nc1nccs1)C1CCN(C(=O)Cc2c(F)cccc2Cl)CC1
717
Cc1ccc(C)c(CNC(=O)c2nc(C)oc2C)c1
867

# ---- query molecule ----
Qu. Record request: RP-LC retention time value, item Cc1noc2nc(CCC(=O)NC(C)c3ccccc3)nc(N3CCCC3)c12 (stereo not given)
Ans. 790

* * *

# Protocol summary: gradient 5% acetonitrile 3 min, to 50% in 2 min, to 85% in 15 min, held 3 min, 100 µL/min
# Condition details: column: Zorbax Extend-C18 2.1 x 50 mm; eluents: water / acetonitrile, 0.1% formic acid
Parameter measured: RP-LC retention time (s)
Report the figure in s without appending any unit label.

Solved entries:
Cc1noc([C@@H]2CN(C(=O)c3cc(C4CC4)[nH]n3)C[C@H]2C(N)=O)n1
596
CCCNC(=O)N1CCCN(C2=NS(=O)(=O)C(c3ccccc3)=C2C)CC1
735
CC(C)c1nnc(-c2ccc(S(=O)(=O)NC3CCCCC3)o2)o1
904
CCOc1ccc(NC(=O)C2CCN(c3cc(Oc4ccc(CC)cc4)ncn3)CC2)cc1
1080
CCOc1ccc(-c2ccc(=O)n(Cc3nc(-c4ccccc4)no3)n2)cc1
1040

Qu. Record request: RP-LC retention time value, item `CCOC(=O)C1CCN(c2ncccc2-c2nnc(-c3ccccc3)o2)CC1`
Ans. 1010

Qu. Record request: RP-LC retention time value, item `O=C(NCc1cccc(Oc2ccc(F)cc2)c1)c1cccnc1`
Ans. 588

Qu. Record request: RP-LC retention time value, item `COc1cccc(CNC(=O)N2CCC(CC(=O)NCc3ccccc3)CC2)c1`
Ans. 736

Qu. Record request: RP-LC retention time value, item `O=C(Cn1nc(N2CCOCC2)c2ccccc2c1=O)Nc1ccccc1F`
Ans. 790

Qu. Record request: RP-LC retention time value, item O=C(NCc1ccc(F)cc1)C1CCCN(c2ccc(-c3ccco3)nn2)C1 (stereo not given)
Ans. 622

Qu. Record request: RP-LC retention time value, item O=C(Nc1ccc(N2CCOCC2)cc1)C1CCCN(c2nnc3ccccn23)C1 (stereo not given)
Ans. 600

Qu. Record request: RP-LC retention time value, item `CCc1nc(N)n(CC(=O)NCc2ccc(F)cc2)c(=O)c1C`
Ans. 634

Qu. Record request: RP-LC retention time value, item `COc1ccc(-c2csc(NC(=O)Nc3c(F)cccc3F)n2)cc1OC`
Ans. 770

Qu. Record request: RP-LC retention time value, item `CCCCCCC(=O)Nc1nc(-c2ccc(Cl)cc2)cs1`
Ans. 1270

* * *

# Protocol summary: gradient 5% acetonitrile 3 min, to 50% in 2 min, to 85% in 15 min, held 3 min, 100 µL/min
# Condition details: column: Zorbax Extend-C18 2.1 x 50 mm; eluents: water / acetonitrile, 0.1% formic acid
Parameter measured: RP-LC retention time (s)
Report the figure in s without appending any unit label.

Cc1noc([C@@H]2CN(C(=O)c3ccc(Cc4c(C)noc4C)o3)C[C@H]2C(N)=O)n1
631

Qu. Record request: RP-LC retention time value, item `CCn1cc(CN2CCC(C(=O)NCc3ccco3)CC2)c2cc(Cl)ccc21`
Ans. 722

Qu. Record request: RP-LC retention time value, item `CN(C)C(=O)C1CCN(c2nc3ccc(-c4ccsc4)nc3s2)CC1`
Ans. 839

Qu. Record request: RP-LC retention time value, item `Cc1cc(C)n(-c2ccnc(N3CCC(C(=O)NCCc4ccccn4)CC3)n2)n1`
Ans. 575

Qu. Record request: RP-LC retention time value, item CCOc1ccc(C2Cn3nnc(-c4nc(-c5ccccc5Cl)no4)c3CO2)cc1 (centres undefined)
Ans. 1150

Qu. Record request: RP-LC retention time value, item `CCOc1ccc(-c2cc3c(=O)n(Cc4nc(-c5ccc(C)c(C)c5)no4)ncn3n2)cc1`
Ans. 1260

Qu. Record request: RP-LC retention time value, item CN(C)c1cccc(C(=O)N2CCN(C(=O)c3nnn4c3COC(c3ccccc3)C4)CC2)c1 (centres undefined)
Ans. 799

Qu. Record request: RP-LC retention time value, item `COc1ccc(NC(=O)N2CCN(c3nc4ccccc4nc3C(F)(F)F)CC2)cc1`
Ans. 993

Qu. Record request: RP-LC retention time value, item CCCc1ccc(S(=O)(=O)N2CCCC2c2nc(-c3cccc(F)c3)no2)cc1 (centres undefined)
Ans. 1270

Qu. Record request: RP-LC retention time value, item CCn1c(N2CCCC(C(=O)NCc3cccc(C)c3)C2)cc(=O)n(C)c1=O (centres undefined)
Ans. 824

Qu. Record request: RP-LC retention time value, item `CC1=C(c2ccc(C(C)C)cc2)S(=O)(=O)N=C1N1CCC(NC(=O)CCC(C)C)CC1`
Ans. 1020

Qu. Record request: RP-LC retention time value, item `Cc1cc(N2CCN(C(=O)CCc3ccccc3)CC2)nc2nnc(C)n12`
Ans. 616

Qu. Record request: RP-LC retention time value, item `O=S(=O)(c1ccc(F)cc1F)N1CCN(Cc2cccc(F)c2)C2(CCOCC2)C1`
Ans. 844

Qu. Record request: RP-LC retention time value, item `CC(C)CCSc1nnc2c(S(=O)(=O)N3CCOCC3)cccn12`
Ans. 810
